System: Calu-3
Assay: cell viability relative to DMSO; higher = less toxic
Settings: 72 h; 100 nM
# cell viability listing for each entry below

compound	readoutUnit	cell viability
CCOC(=O)[C@H](CCc1ccccc1)N[C@@H](C)C(=O)N1C(=O)N(C)C[C@H]1C(=O)O [imidapril]	%	99.8
C[C@H]1CCC/C=C/[C@@H]2C[C@H](O)C[C@H]2[C@H](O)/C=C/C(=O)O1 [brefeldin-A]	%	32.3
CC(C)(C)NC(=O)[C@@H]1CN(Cc2cccnc2)CCN1C[C@@H](O)C[C@@H](Cc1ccccc1)C(=O)N[C@H]1c2ccccc2C[C@H]1O [indinavir]	%	98.4
Cc1cc(C(C)(C)CC(C)(C)C)ccc1OCCOCC[N+](C)(C)Cc1ccccc1 [methylbenzethonium-chloride]	%	91.4
CN1[C@@H]2CC[C@H]1C[C@@H](OC(=O)c1c[nH]c3ccccc13)C2 [tropisetron]	%	99.9
Cc1ccnc2c1NC(=O)c1cccnc1N2C1CC1 [nevirapine]	%	109
C[C@@H]1O[C@@H]1P(=O)(O)O [FOSFOMYCIN CALCIUM]	%	97.7
COc1cc(CN2CCN(c3ccc(F)cc3)CC2)cc(OC)c1OC [V-51]	%	106
C=C(C)[C@H]1CN[C@H](C(=O)O)[C@H]1CC(=O)O [kainic-acid]	%	93.5
O=C(Nc1ccccc1)c1cc([N+](=O)[O-])ccc1Cl [GW-9662]	%	101
O[C@@H](C[C@H]1c2ccccc2-c2cncn21)C1CCCCC1 [NLG919]	%	92.7
C[N+]12CCCCC1CCC(=C(c1cccs1)c1cccs1)C2 (stereo not drawn) [tiquizium]	%	97.8
C=C1C(=O)O[C@@H]2[C@H]3C(C)=CC[C@@]34O[C@@]4(C)CC[C@@H]12 [arglabin]	%	88.3
NC(=O)CN1CCCC1=O [piracetam]	%	112
CCOC(=O)[C@H](CCc1ccccc1)N[C@H]1CCc2ccccc2N(CC(=O)O)C1=O [benazepril]	%	111
C[C@@H](NCc1cc(Br)cc2nc(O)c(O)nc12)P(=O)(O)O	%	81
CC(=O)OCC(=O)NCCCOc1cccc(CN2CCCCC2)c1 [roxatidine-acetate]	%	103
CCCC(=O)Nc1cccc(NC(=O)c2ccccc2Br)c1 [ML161]	%	89.2
